Molecular target: T1, His-tagged CD73 extracellular domain protein (hCD73 ECD-His) (human, UniProt P21589 27-547)
T1 construct: Expressed in CHO cells from pTT5-hCD73 ECD-His6, purified on nickel column; also called hCD73 ECD-His6; human CD73 ECD
T1 sequence: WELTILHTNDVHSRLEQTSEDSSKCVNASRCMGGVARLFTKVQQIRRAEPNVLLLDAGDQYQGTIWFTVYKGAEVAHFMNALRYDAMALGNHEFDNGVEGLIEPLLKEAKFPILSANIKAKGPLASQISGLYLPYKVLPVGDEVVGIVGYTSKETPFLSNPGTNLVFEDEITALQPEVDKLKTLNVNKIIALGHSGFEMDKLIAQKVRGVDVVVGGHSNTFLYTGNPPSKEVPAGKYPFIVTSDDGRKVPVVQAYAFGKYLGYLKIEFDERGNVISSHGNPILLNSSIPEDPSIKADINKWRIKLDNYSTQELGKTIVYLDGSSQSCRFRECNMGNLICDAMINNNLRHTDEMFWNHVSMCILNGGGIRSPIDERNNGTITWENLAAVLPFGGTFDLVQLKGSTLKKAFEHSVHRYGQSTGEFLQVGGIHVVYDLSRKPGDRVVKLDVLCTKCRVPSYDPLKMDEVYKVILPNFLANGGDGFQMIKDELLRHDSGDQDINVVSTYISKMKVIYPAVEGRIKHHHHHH
Assay: Octet BLI, antibody on AHC sensor, antigen 50-200 nM, 1:1 fit
Listing of recorded Kd by entry.
Record the value in pM, omitting the unit from your answer.

binder | uom | Kd
mab030xhIgG1TM (clone 42A5A7), mouse-human chimeric anti-CD73 antibody (antibody, V domains shown, also called mAb030 chimeric antibody) VH: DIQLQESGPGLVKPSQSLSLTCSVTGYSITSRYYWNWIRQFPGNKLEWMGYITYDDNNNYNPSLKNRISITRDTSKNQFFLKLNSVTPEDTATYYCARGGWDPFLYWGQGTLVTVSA VL: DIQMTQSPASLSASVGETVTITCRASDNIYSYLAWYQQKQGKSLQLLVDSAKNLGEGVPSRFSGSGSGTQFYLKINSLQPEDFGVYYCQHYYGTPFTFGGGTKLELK | pM | 38.5
mab041xhIgG1TM (clone 71E10B3), mouse-human chimeric anti-CD73 antibody (antibody, V domains shown, also called mAb041 chimeric antibody) VH: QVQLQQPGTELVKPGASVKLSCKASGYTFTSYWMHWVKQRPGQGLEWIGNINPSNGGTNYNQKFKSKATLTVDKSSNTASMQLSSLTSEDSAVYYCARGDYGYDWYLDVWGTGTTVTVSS VL: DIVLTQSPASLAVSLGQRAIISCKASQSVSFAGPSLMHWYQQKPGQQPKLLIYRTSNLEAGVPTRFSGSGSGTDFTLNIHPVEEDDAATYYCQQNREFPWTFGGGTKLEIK | pM | 298
mab032xhIgG1TM (clone 56F12H8), mouse-human chimeric anti-CD73 antibody (antibody, V domains shown, also called mAb032 chimeric antibody) VH: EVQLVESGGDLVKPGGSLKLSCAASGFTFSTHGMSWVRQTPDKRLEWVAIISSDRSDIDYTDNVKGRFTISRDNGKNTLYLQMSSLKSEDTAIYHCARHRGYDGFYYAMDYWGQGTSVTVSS VL: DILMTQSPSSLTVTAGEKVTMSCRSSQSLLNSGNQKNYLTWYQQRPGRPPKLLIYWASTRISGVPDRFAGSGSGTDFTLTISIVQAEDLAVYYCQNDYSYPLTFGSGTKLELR | pM | 279

Output Kd of mab034xhIgG1TM (clone 60G1C8), mouse-human chimeric anti-CD73 antibody (antibody, V domains shown, also called mAb034 chimeric antibody) VH: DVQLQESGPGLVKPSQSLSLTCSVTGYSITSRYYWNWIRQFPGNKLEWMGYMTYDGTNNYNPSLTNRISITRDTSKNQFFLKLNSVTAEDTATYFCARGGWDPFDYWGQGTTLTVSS VL: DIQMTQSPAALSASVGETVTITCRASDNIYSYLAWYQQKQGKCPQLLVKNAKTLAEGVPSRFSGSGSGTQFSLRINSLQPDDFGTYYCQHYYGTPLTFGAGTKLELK
57.7

Output Kd of mab036xhIgG1TM (clone 66H6C12), mouse-human chimeric anti-CD73 antibody (antibody, V domains shown, also called mAb036 chimeric antibody) VH: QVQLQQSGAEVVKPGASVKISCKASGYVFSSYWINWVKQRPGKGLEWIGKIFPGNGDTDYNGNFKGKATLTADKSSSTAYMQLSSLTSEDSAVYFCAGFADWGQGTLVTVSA VL: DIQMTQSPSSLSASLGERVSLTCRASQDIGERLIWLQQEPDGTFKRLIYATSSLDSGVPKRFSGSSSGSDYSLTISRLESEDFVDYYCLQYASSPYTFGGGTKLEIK
21.3
